All values here come from patent US20240368309A1.

Target: T1, biotinylated monovalent EpCAM-Fc (human EpCAM ECD-Fc knob avi-his paired with Fc hole) (human, UniProt P01857 104-328 = IgG part, biotin on the avi tag (BirA co-expression))
T1 construct: also called monovalent EpCAM-Fc construct; huEPCAM-Fc-knob (avi-His) + Fc hole (wt)
Assay: SPR ProteOn XPR36 off-rate, biotinylated monovalent EpCAM-Fc on NLC chip, 50 nM supernatant
Collected koff values appear next to each entry.
Your answer is read as s⁻¹, so omit the unit and give the number.

Some entries whose results are on file:
binder: Monovalent EpCAM (GG03_VH x GG07_VL) (antibody, IgG1, V domains shown, one-armed hu IgG1 PG-LALA, VH/VL-crossed Fab on Fc hole plus empty Fc knob; from supernatant) VH: QVQLVQSGAEVKKPGASVKVSCKASGYTFTNYGMNWVRQAPGQRLEWMGWINTYTGESTYSQKFQGRVTITLDTSASTAYMELSSLRSEDTAVYFCARFAIKGDYWGQGTLVTVSS VL: EIVLTQSPGTLSLSPGERATLSCRASQSINNYLYWYQQKPGQAPRLLIYQMSNRATGIPDRFSGSGSGTDFTLTISRLEPEDFAVYYCAQNLEIPRTFGQGTKLEIK
recordedMetric: koff
recordedNumber: 0.00366

binder: Monovalent EpCAM (GG01_VH x GG04_VL) (antibody, IgG1, V domains shown, one-armed hu IgG1 PG-LALA, VH/VL-crossed Fab on Fc hole plus empty Fc knob; from supernatant) VH: QVQLVQSGSELKKPGASVKVSCKASGYTFTNYGMNWVRQAPGQGLEWMGWINTYTGESTYAQGFTGRFVFSLDTSVSTAYLQISSLKAEDTAVYFCARFAIKGDYWGQGTLVTVSS VL: DIQMTQSPSSLSASVGDRVTITCRASQSISSYLYWYQQKPGKAPKLLIYQASSLQSGVPSRFSGSGSGTDFTLTISSLQPEDFATYYCAQNLEIPRTFGQGTKLEIK
recordedMetric: koff
recordedNumber: 0.00272

Using the record for Monovalent EpCAM (GG03_VH x GG01_VL) (antibody, IgG1, V domains shown, one-armed hu IgG1 PG-LALA, VH/VL-crossed Fab on Fc hole plus empty Fc knob; from supernatant) VH: QVQLVQSGAEVKKPGASVKVSCKASGYTFTNYGMNWVRQAPGQRLEWMGWINTYTGESTYSQKFQGRVTITLDTSASTAYMELSSLRSEDTAVYFCARFAIKGDYWGQGTLVTVSS VL: DIVMTQSPLSLPVTPGEPASISCRSSQSLLHSNGITYLYWYLQKPGQSPQLLIYQMSNRASGVPDRFSGSGSGTDFTLKISRVEAEDVGVYYCAQNLEIPRTFGQGTKLEIK , report its koff. 0.00255
